Values were extracted from patent US12084472B2.

- measurement_target: human TGR5 (Homo sapiens, UniProt Q8TDU6)
- Construct: expressed in transfected cells; host or cells: HEK293
- Sequence (Q8TDU6 whole entry): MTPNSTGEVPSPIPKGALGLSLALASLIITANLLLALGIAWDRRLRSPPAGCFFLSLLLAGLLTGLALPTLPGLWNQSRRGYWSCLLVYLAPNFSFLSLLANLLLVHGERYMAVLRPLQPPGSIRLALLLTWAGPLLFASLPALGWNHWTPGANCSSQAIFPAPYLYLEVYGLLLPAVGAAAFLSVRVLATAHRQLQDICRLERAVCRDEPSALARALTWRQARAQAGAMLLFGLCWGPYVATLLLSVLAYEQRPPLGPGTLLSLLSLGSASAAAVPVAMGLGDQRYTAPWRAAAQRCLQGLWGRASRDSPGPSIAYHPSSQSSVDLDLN
- method: Cell-based TGR5 assay (cAMP generation, HTRF)
- condition_parameters: HEK293 cells stably transfected with human TGR5; cAMP by HTRF; 30 minutes at 37° C.; read-out: pEC50 Human TGR5 (converted)
Property: EC50; scope: individual compounds

Below, each entry is followed by its recorded EC50 result.
compound: CC(CCCC(=O)N(CCO)C[C@@H](O)[C@H](O)[C@@H](O)[C@@H](O)CO)c1ccc(Cl)c(CNC2(c3cnccc3-c3ccccc3OC3CC3)CC2)c1 (stereo partly drawn) [Compound I-331]
EC50: < 100 nM
//
compound: CC(CCCCN)c1ccc(Cl)c(CNC2(c3cnccc3-c3ccccc3OC3CC3)CC2)c1 (single isomer, unassigned) [Compound I-244]
EC50: 126 to 1000 nM

Now for the compound whose EC50 we want.
Item O=C(NCCCCSc1ccc(Cl)c(COC2(c3cnccc3-c3ccccc3OC3CC3)CC2)c1)N[C@@H](CO)[C@@H](O)[C@H](O)[C@H](O)CO [Compound I-628] ; assay system human TGR5 (Homo sapiens, UniProt Q8TDU6); EC50 reported as < 100 nM
